Biological target: T1, cynomolgus monkey IL-33 expressed with a C-terminal hexahistidine tag (cynomolgus monkey)
T1 construct: also called MfIL-33-6His; Mf-IL-33-6His
T1 chain: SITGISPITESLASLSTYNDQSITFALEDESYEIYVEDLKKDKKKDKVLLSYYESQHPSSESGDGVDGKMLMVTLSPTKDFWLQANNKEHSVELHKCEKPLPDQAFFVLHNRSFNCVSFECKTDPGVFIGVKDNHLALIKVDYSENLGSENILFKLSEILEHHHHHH
Test: SPR 37C pH7.4, mAb captured
observable: kon (M⁻¹ s⁻¹)
Use M⁻¹ s⁻¹ as the unit, but write only the number.

Q) Returns the measured kon for the input binder. Input: H4H9663P (antibody, human IgG4, V domains shown, Human IgG4 Fc (H4H)) VH: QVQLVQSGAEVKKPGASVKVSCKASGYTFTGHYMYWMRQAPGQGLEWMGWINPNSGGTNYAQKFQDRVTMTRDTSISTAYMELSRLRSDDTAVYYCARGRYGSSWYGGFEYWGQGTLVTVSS VL: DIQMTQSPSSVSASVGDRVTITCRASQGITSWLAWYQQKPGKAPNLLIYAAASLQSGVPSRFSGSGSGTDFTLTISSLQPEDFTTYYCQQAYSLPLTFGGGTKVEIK
A) 1.62e+06

Q) Returns the measured kon for the input binder. Input: H4H9675P (antibody, human IgG4, V domains shown, Human IgG4 Fc (H4H)) VH: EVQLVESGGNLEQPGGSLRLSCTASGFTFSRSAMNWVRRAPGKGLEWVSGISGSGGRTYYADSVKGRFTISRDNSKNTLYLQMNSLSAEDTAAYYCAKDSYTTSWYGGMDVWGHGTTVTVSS VL: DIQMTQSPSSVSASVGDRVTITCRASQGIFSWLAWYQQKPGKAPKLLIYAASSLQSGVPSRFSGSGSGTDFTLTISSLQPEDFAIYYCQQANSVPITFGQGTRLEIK
A) 1.02e+06

Q) Returns the measured kon for the input binder. Input: H4H9660P (antibody, human IgG4, V domains shown, Human IgG4 Fc (H4H)) VH: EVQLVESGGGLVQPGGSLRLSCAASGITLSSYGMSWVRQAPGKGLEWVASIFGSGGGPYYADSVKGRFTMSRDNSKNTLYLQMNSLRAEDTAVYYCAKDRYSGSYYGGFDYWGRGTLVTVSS VL: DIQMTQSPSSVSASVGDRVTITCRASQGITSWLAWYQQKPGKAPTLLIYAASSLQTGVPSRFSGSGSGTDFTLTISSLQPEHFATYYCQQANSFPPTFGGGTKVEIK
A) 680000
